molecular target: Tyrosine-protein kinase ABL1 (Homo sapiens) + Ras and Rab interactor 1 (Homo sapiens) (UniProt P00519+Q13671); assay: inhibitors of Rin1-Abl protein binding, primary screen, biochemical, TR-FRET (AID 588664); conditions: at 7.35 µM, hits give high values
Sequence (P00519 whole entry, looked up): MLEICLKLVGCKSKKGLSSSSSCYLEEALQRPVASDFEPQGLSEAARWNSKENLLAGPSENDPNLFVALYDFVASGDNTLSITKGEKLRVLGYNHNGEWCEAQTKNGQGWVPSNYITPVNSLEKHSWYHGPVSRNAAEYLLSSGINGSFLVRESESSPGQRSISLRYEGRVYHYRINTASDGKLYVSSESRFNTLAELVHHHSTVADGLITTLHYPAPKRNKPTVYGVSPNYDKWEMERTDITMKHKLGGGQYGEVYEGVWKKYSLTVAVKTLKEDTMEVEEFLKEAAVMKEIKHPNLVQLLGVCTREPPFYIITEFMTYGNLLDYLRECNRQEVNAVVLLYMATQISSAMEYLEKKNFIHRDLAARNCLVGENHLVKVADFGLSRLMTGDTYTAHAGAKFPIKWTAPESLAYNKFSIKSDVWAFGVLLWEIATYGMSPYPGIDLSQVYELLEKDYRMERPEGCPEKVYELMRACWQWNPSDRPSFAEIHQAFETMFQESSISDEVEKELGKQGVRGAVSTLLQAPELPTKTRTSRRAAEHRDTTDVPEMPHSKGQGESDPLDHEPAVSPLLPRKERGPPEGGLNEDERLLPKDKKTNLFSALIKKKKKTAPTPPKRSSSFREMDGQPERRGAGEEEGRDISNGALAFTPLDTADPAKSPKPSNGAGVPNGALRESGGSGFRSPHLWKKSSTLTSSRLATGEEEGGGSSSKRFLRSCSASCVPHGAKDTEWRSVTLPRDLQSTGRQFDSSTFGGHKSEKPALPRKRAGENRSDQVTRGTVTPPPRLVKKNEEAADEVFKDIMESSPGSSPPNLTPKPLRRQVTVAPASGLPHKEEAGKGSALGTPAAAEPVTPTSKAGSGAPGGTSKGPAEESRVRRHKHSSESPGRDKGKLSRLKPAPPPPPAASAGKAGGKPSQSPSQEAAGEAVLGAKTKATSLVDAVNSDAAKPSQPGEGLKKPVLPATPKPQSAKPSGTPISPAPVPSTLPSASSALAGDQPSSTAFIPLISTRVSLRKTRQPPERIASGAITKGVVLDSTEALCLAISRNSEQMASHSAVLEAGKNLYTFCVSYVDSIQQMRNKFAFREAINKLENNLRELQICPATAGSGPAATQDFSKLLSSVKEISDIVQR
Sequence (Q13671 whole entry, looked up): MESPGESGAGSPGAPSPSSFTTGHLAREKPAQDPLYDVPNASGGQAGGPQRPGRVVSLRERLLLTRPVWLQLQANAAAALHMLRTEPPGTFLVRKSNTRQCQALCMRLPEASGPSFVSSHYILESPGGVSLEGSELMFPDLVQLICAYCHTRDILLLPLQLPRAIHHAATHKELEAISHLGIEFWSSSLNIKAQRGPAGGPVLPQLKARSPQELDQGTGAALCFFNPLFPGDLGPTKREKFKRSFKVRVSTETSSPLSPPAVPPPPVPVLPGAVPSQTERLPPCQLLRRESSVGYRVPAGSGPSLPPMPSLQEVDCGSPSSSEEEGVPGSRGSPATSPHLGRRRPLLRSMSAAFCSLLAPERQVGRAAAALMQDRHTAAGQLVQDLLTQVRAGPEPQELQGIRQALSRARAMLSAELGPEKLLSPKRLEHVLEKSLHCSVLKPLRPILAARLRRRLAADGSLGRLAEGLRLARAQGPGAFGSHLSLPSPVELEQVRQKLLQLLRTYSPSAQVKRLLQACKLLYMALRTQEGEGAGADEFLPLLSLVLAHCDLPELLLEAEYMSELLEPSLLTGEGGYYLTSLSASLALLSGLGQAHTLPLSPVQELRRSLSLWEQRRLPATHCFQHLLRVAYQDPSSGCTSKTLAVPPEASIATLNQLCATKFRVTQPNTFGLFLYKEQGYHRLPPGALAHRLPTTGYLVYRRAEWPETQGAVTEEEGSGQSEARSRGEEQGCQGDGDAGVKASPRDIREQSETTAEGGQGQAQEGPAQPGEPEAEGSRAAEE
The campaign covered roughly 360,000 compounds. About 1,400 (0.39%) were called active. This excerpt belongs to a sample that is enriched for actives.
reported_metric: inhibition (%)
Only the number, expressed in %, is required.

- compound: "CCOC(=O)N1CCN(C(=O)c2cn(C)c3ccc(S(=O)(=O)N(CC)CC)cc3c2=O)CC1"
  inhibition (%): -0.08
- compound: "COc1ccccc1C(=O)N1CCNC(=O)C1CC(=O)Nc1ccc(Cl)cc1 (stereo not given)"
  inhibition (%): 4.11
- compound: "CCc1ccc(CNC(=O)C2CCN(c3nnc(C)c4c(C)n(-c5ccc(C)cc5)nc34)CC2)cc1"
  inhibition (%): -2.17
- compound: "Fc1cccc(Cl)c1COc1ccc(-c2nnco2)cc1"
  inhibition (%): 0.01

Here's the next entry for you.
Query: Output inhibition of COc1ccccc1C(CNC(=O)c1ccc(C)c(S(=O)(=O)N2CCCCC2)c1)N(C)C (stereo not given)
Response: 1.36

====

molecular target: Tyrosine-protein kinase ABL1 (Homo sapiens) + Ras and Rab interactor 1 (Homo sapiens) (UniProt P00519+Q13671); test: inhibitors of Rin1-Abl protein binding, primary screen, biochemical, TR-FRET (AID 588664); conditions: at 7.35 µM
Hit rate of the full screen: of about 360,000 compounds, about 1,400 (0.39%) were called active. Cut-off read from the data, not from the text of the source: active = inhibition above about 5% (passing the limit was not always enough); inactive = the rest. Only a selection was taken, and actives are over-represented in it overall.
Log the outcome using a class from active, inactive

Query: Give the logged outcome of this assay for the following molecule: CCOC(=O)C(CCOc1cccc(CC)c1)C(=O)OCC
Response: inactive

Query: Which outcome was assigned to COC(=O)c1c(NC(=O)c2ccc(S(=O)(=O)N3CCOCC3)cc2)sc2c1CCN(C(C)C)C2 in this test?
Response: inactive

Query: What did the test return for Cc1cc(C)n(CCNCc2c(C(=O)N3C[C@@H](C)O[C@@H](C)C3)nc3ccc(Cl)cn23)n1 ?
Response: inactive

====

target: Tyrosine-protein kinase ABL1 (Homo sapiens) + Ras and Rab interactor 1 (Homo sapiens) (UniProt P00519+Q13671); assay: inhibitors of Rin1-Abl protein binding, primary screen, biochemical, TR-FRET (AID 588664); conditions: at 7.35 µM, hits give high values
Hit rate of the full screen: of about 360,000 compounds, about 1,400 (0.39%) were called active. For the sample, actives were picked, then their nearest neighbours and some compounds at random.
Each entry below carries its reported inhibition.
Report as a plain number; the unit % is understood.

Some solved entries appear below for comparison.
- molecule: "Cc1cccc(C)c1NC(=O)CSc1nnc(-c2ccccc2)n1Cc1ccc2c(c1)OCO2"
  inhibition / %: 8.78
- molecule: "O=C(COc1ccc([N+](=O)[O-])cc1)Nc1cccc(C(=O)Nc2ccccc2C(=O)O)c1"
  inhibition / %: 2.02
- molecule: "COc1ccc2c(c1)c(=O)c(C(=O)c1ccc(Cl)cc1)cn2CC(=O)Nc1ccc(F)cc1"
  inhibition / %: -3.04
- molecule: "Nc1nc2n(n1)C(c1ccco1)CC(c1ccc(Cl)c(Cl)c1)N2 (configuration not stated)"
  inhibition / %: 6.57
- molecule: "Cc1cc(=O)n2nc(N3CCCC(C(=O)N4CCN(C)CC4)C3)sc2n1 (configuration not stated)"
  inhibition / %: 1.05
- molecule: "CCCn1c(N)c(C(=O)CSc2nnc3n2CCCCC3)c(=O)[nH]c1=O"
  inhibition / %: 6.59

Query: Note down inhibition recorded for CCCCCN(C(=O)CCC(=O)OCCOc1ccc(OC)cc1)c1c(N)n(CCCC)c(=O)[nH]c1=O
Response: 1.88

Query: Look up and state reported inhibition for O=C(CCNC(=O)c1ccc([N+](=O)[O-])cc1)NC1CCCCC1
Response: -2.29

Query: Give me measured inhibition, please, for this molecule: Cc1ccccc1C(=O)N1CCC(C(=O)Nc2ccc(S(=O)(=O)N(C)C(C)C)cc2)CC1
Response: 14.6

Query: Give me measured inhibition, please, for this molecule: CC(C)CNS(=O)(=O)c1ccc(OCC(=O)Nc2ccc3c(c2)OCO3)c(Cl)c1
Response: -2.64

Query: Using known records, supply inhibition for Cc1ccc(C2CC(c3cccc(Br)c3)n3nc(N)nc3N2)cc1 (configuration not stated)
Response: 1.76
